Provide the reported cell viability of each item.
System: DLD1
assayInfo: cell viability (CellTiter-Glo) relative to plate median (fraction of plate median); higher = more viable cells
measurementSetup: 10 µM; treatment time 24 h; reporter: TCF4/Wnt
Form: value (number only, do not type unit).

# input // returns reported cell viability for input Nc1ccc(-c2ccc3ncc4ccc(=O)n(-c5cccc(C(F)(F)F)c5)c4c3c2)cn1
# output 0.96

# input Param item: Oc1ccc(-c2nc(-c3ccc(F)cc3)c(-c3ccncc3)[nH]2)cc1
# output 1.04

# input Param item: Nc1nc(Nc2ccc(S(N)(=O)=O)cc2)nn1C(=O)c1c(F)cccc1F
# output 1.05

# input Param item: O=C1NC(=O)[C@@H](c2cn3c4c(cccc24)CCC3)[C@@H]1c1c[nH]c2ccccc12 [ARQ 197 (Tivantinib)]
# output 1.01

# input Param item: CCCCCCCCCCCCc1ccc(S(=O)(=O)Nc2nncs2)cc1
# output 0.966
